The measured values listed here are drawn from patent EP4725969A1.

assayTarget: T1, recombinant human HER2 extracellular domain protein (human, UniProt P04626 23-652)
T1 construct: range 23-652; Range is printed for the immunogen/panning protein; also called ErbB2; recombinant HER2 protein
assayProcedure: BLI, Protein A capture
Could you label it criterion met if measured kon is 100000 M⁻¹ s⁻¹ or higher, and criterion not met otherwise?

Recorded results for 2 binders are shown here.
binder	qualitativeLabel
2126-Hu-H30 (antibody, IgG1, name in Kabat numbering, V domains shown, IgG1/Cκ) VH: QVQLVQSGSELKKPGASVKVSCKASGYTFTDYSMHWVRQAPGQGLEWMGWINTETGNPTYADDFKGRFVFSLDTSVSTAYLQISSLKAEDTAVYFCVRVGRYDYAMDYWGQGTTVTVSS VL: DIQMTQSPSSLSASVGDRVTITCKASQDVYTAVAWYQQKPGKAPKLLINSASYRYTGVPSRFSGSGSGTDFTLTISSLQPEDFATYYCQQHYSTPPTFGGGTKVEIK	criterion met
2126-Hu-L07 (antibody, IgG1, V domains shown, IgG1/Cκ) VH: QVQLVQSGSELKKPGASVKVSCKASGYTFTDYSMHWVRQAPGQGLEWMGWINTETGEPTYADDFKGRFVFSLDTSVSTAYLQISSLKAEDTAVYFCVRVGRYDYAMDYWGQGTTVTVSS VL: DIQMTQSPSSLSASVGDRVTITCKASQDVYTAVAWYQQKPGKAPKLLINSASDRYTGVPSRFSGSGSGTDFTLTISSLQPEDFATYYCQQHYSTPPTFGGGTKVEIK	criterion not met

Here is the next item to consider.
Ask: # bool: kon of 2126-Hu-H55 (antibody, IgG1, name in Kabat numbering, V domains shown, IgG1/Cκ) VH: QVQLVQSGSELKKPGASVKVSCKASGYTFTDYSMHWVRQAPGQGLEWMGWINTETGEPTYADDFKGRFVFSLDTSVSTAYLQISSLKAEDTAVYFCVRVGRYAYAMDYWGQGTTVTVSS VL: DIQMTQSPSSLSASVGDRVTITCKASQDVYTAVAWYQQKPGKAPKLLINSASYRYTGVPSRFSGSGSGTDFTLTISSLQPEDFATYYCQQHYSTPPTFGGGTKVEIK >= 100000 M⁻¹ s⁻¹
Reply: criterion met
